Procedure Summary: Cytotoxicity against HEL cells assessed as alternation of cell morphology by microscopic analysis
Assay type: cell-based
Experimental Parameters: human
Readout Type: MCC

Compound	Measurement
CCOP(=O)(OCC)[C@@H]1C[C@@H](C(=O)Nc2cc3c4c(cccc4c2)C(=O)N(CCN(CC)CC)C3=O)ON1C (racemic)	≥ 100 µM
Nc1ccn(C[C@@H](CO)OCP(=O)(O)O)c(=O)n1 [CIDOFOVIR]	> 250 µM
Nc1nc2c(ncn2COCCO)c(=O)[nH]1 [ACYCLOVIR]	> 250 µM
Nc1nc2c(ncn2COC(CO)CO)c(=O)[nH]1 [GANCICLOVIR]	> 100 µM
CCCN1C(=O)c2cccc3cc(NC(=O)[C@H]4C[C@@H](P(=O)(OCC)OCC)N(C)O4)cc(c23)C1=O (racemic)	> 100 µM
CCOP(=O)(OCC)[C@@H]1C[C@H](C(=O)Nc2cc3c4c(cccc4c2)C(=O)N(CCN(C)C)C3=O)ON1C (racemic)	≥ 100 µM
CCOP(=O)(OCC)[C@@H]1C[C@@H](C(=O)Nc2cc3c4c(cccc4c2)C(=O)N(CC(C)C)C3=O)ON1C (relative stereo)	> 100 µM
CCOP(=O)(OCC)[C@@H]1C[C@H](C(=O)Nc2cc3c4c(cccc4c2)C(=O)N(CC(C)C)C3=O)ON1C (racemic)	> 100 µM
CCOP(=O)(OCC)[C@@H]1C[C@H](C(=O)Nc2cc3c4c(cccc4c2)C(=O)N(CCN(CC)CC)C3=O)ON1C (racemic)	> 100 µM
CCOP(=O)(OCC)[C@@H]1C[C@@H](C(=O)Nc2cc3c4c(cccc4c2)C(=O)N(CCN2CCCC2)C3=O)ON1C (relative stereo)	≥ 100 µM

---

System: Cytomegalovirus
Procedure Summary: Antiviral activity against Cytomegalovirus Davis infected in HEL cells assessed as reduction of virus-induced cytopathogenicity
Format: functional, organism-based
Experimental Parameters: Human betaherpesvirus 5, Davis
Readout Type: EC50

Compound	Measurement
CCOP(=O)(OCC)[C@@H]1C[C@H](C(=O)Nc2cc3c4c(cccc4c2)C(=O)N(CCN(CC)CC)C3=O)ON1C (racemic)	≥ 100 µM
CCOP(=O)(OCC)[C@@H]1C[C@@H](C(=O)Nc2cc3c4c(cccc4c2)C(=O)N(CC(C)C)C3=O)ON1C (relative stereo)	> 100 µM
CCCCN1C(=O)c2cccc3cc(NC(=O)[C@H]4C[C@@H](P(=O)(OCC)OCC)N(C)O4)cc(c23)C1=O (racemic)	> 20 µM
